- TARGET UNDER TEST: human Mnk2a (Homo sapiens)
- Sequence (Q9HBH9 whole entry): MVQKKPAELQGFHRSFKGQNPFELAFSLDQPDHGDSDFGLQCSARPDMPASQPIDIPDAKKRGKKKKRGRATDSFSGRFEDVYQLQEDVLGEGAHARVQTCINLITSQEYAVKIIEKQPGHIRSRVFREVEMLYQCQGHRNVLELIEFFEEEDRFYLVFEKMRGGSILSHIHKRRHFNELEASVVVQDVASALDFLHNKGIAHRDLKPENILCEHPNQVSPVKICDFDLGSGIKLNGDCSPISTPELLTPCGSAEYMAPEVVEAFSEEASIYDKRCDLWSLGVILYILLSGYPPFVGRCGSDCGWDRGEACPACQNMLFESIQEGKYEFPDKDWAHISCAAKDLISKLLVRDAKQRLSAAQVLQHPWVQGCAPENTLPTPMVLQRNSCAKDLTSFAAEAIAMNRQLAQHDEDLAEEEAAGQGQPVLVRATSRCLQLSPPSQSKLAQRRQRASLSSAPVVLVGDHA
- PROCEDURE DETAILS: Mnk2a in vitro kinase assay (indirect fluorescence polarization)
- CONDITION LABEL: GST-Mnk2a pre-activated with ERK2, 20 μM ATP, 30 μM substrate peptide; read-out: MNK2 IC50
MEASUREMENT NAME: IC50

Take a look at these entries with their results.
Input line: Which IC50 value belongs to Cc1c(C(=O)NCc2ncco2)sc2ncnc(Nc3ccc(F)cc3OC3CCCNC3)c12 (stereo not shown) [Example 23] ?
Output line: 48 nM

Input line: What do you have for Cc1c(C(=O)NC2CC2)sc2ncnc(Nc3ccc(F)cc3O[C@H]3CCOC3)c12 [Example 112] ?
Output line: 21 nM

Input line: What do you have for CONC(=O)c1sc2ncnc(Nc3ccc(F)cc3OC3CCOCC3)c2c1C [Example 239] ?
Output line: 41 nM

Continuing:
Input line: Which IC50 value belongs to Cc1c(C(=O)NCCO)sc2ncnc(Nc3ccc(F)cc3O[C@H]3CCCNC3)c12 [Example 15] ?
Output line: 31 nM

Reference source for all entries: patent US8648068B2
